The values you see were collected from patent US20090270459A1.

test system: std:ddy strain male mice; experiment: Toxicity to mouse, administration into the stomach; type: in vivo; details: 30 mg/kg into the stomach, in olive oil; male mice
We begin with a simple list: items and their reported Cumulative mortality After 3 hours.

N#Cc1nn(-c2c(Cl)cc(C(F)(F)F)cc2Cl)c(N)c1[S+]([O-])C(F)(F)F (stereo not shown) [Fipronil, reference compound]: 0/5

Query: Looking for the measured Cumulative mortality After 3 hours of FC(F)(F)Sc1cn(-c2c(Cl)cc(C(F)(F)F)cc2Cl)c2ccccc12 [Compound 25] , can you help?
Reply: 0/5

Query: Looking for the measured Cumulative mortality After 3 hours of Cc1c(SC(F)(Cl)Cl)c2ccccc2n1-c1ncc(C(F)(F)F)cc1Cl [Compound 14] , can you help?
Reply: 0/5

Query: Looking for the measured Cumulative mortality After 3 hours of FC(Cl)(Cl)Sc1cn(-c2c(Cl)cc(C(F)(F)F)cc2Cl)c2ccccc12 [Compound 17] , can you help?
Reply: 0/5

###

Tested on: adult cat fleas
Test: Effect on cat flea (1): glass tube residue contact test, knock-down and mortality
Type: in vivo, cat flea (Ctenocephalides felis)
Conditions: 0.001 mg/tube
Experimental: Each compound was dissolved in acetone to a predetermined concentration and 0.1 ml of the resulting solution was dropped into the bottom of a glass tube with a diameter of 2.8 cm and a height of 12 cm and air-dried. […] The knocked-down (KD) fleas after 3 hours and the dead and alive after 24 hours and 48 hours were counted, and the knocking-down rate and the mortality were calculated. […]
value-kind: After 1 day (mortality) (%)
Expressed in %, but write only the number.

Completed entries (count: 3):
FC(Cl)(Cl)Sc1cn(-c2ncc(C(F)(F)F)cc2Cl)c2ccccc12: 10
FC(Cl)(Cl)Sc1cn(-c2ncc(C(F)(F)F)cc2Cl)c2ccc(Cl)cc12: 20
FC(Cl)(Cl)Sc1cn(-c2c(Cl)cc(C(F)(F)F)cc2Cl)c2ccccc12: 10

The record that follows has no After 1 day (mortality) shown yet.
Query: Looking for the measured After 1 day (mortality) of `O=S(=O)(c1cn(-c2c(Cl)cc(C(F)(F)F)cc2Cl)c2ccccc12)C(F)(Cl)Cl` , can you help?
Reply: 0

###

Tested on: std:ddy strain male mice
Experiment: Toxicity to mouse, administration into the stomach
Type: in vivo
Settings: 30 mg/kg
Procedure: The compound listed in Table 1 or Fipronil was dissolved in olive oil to a predetermined concentration, and the resulting solution was directly administered into the stomachs of std:ddy strain male mice by the use of a probe. The dose was 30 mg/kg or 100 mg/kg. Whether the mice were alive or dead was observed 3 hours, 1 day, 7 days and 14 days after the administration.
value-kind: Cumulative mortality After 1 day

Completed entries (count: 3):
N#Cc1nn(-c2c(Cl)cc(C(F)(F)F)cc2Cl)c(N)c1[S+]([O-])C(F)(F)F (stereo not shown) [Fipronil, reference compound]: 1/5
FC(Cl)(Cl)Sc1cn(-c2c(Cl)cc(C(F)(F)F)cc2Cl)c2ccccc12: 0/5
Cc1c(SC(F)(Cl)Cl)c2ccccc2n1-c1ncc(C(F)(F)F)cc1Cl: 0/5

The record that follows has no Cumulative mortality After 1 day shown yet.
Query: Looking for the measured Cumulative mortality After 1 day of `FC(F)(F)Sc1cn(-c2c(Cl)cc(C(F)(F)F)cc2Cl)c2ccccc12` , can you help?
Reply: 0/5

###

System: adult cat fleas
Experiment: Effect on cat flea (1): glass tube residue contact test, knock-down and mortality
Assay type: in vivo, cat flea (Ctenocephalides felis)
Settings: 0.001 mg/tube
Experimental: Each compound was dissolved in acetone to a predetermined concentration and 0.1 ml of the resulting solution was dropped into the bottom of a glass tube with a diameter of 2.8 cm and a height of 12 cm and air-dried. […] The knocked-down (KD) fleas after 3 hours and the dead and alive after 24 hours and 48 hours were counted, and the knocking-down rate and the mortality were calculated. […]
We begin with a simple list: items and their reported After 1 day (mortality).
Expressed in %, but write only the number.

Fc1ccc2c(c1)c(SC(F)(Cl)Cl)cn2-c1ncc(C(F)(F)F)cc1Cl [Compound 2]: 0
N#Cc1nn(-c2c(Cl)cc(C(F)(F)F)cc2Cl)c(N)c1[S+]([O-])C(F)(F)F (stereo not shown) [Fipronil, reference compound]: 20
FC(F)(F)Sc1cn(-c2c(Cl)cc(C(F)(F)F)cc2Cl)c2ccccc12 [Compound 25]: 0

The record that follows has no After 1 day (mortality) shown yet.
Query: Looking for the measured After 1 day (mortality) of Cc1c(SC(F)(Cl)Cl)c2ccccc2n1-c1ncc(C(F)(F)F)cc1Cl [Compound 14] , can you help?
Reply: 20
